Every entry's value here was drawn from ChEMBL document CHEMBL3124924.

System: MOLT-4
Assay: Cytotoxicity against human MOLT4 cells assessed as growth inhibition at 10 uM after 48 hrs by SRB assay
Type: functional
Conditions: MOLT-4, 48 h, read-out: GI
metric_name: inhibition of growth at 10 µM (%)

{"structure_notation": "CCOC(=O)c1sc(NS(=O)(=O)c2ccccc2)nc1C", "metric_name": "inhibition of growth at 10 µM", "readout_units": "%", "relation_operator": "=", "observed": 24.4}
{"structure_notation": "Cc1nc(NC(=S)Nc2ccc(F)cc2)sc1C(=O)NN", "metric_name": "inhibition of growth at 10 µM", "readout_units": "%", "relation_operator": "<", "observed": 10}
{"structure_notation": "Cc1nc(NC(=O)NC2CCCCC2)sc1C(=O)NN", "metric_name": "inhibition of growth at 10 µM", "readout_units": "%", "relation_operator": "<", "observed": 10}
{"structure_notation": "Cc1nc(N)sc1C(=O)Nc1ccc(F)cc1", "metric_name": "inhibition of growth at 10 µM", "readout_units": "%", "relation_operator": "<", "observed": 10}
{"structure_notation": "CCOC(=O)c1sc(NC(=O)NC2CCCCC2)nc1C", "metric_name": "inhibition of growth at 10 µM", "readout_units": "%", "relation_operator": "=", "observed": 12.3}
{"structure_notation": "CCOC(=O)c1sc(NC(=O)c2cc(OC)c(OC)c(OC)c2)nc1C", "metric_name": "inhibition of growth at 10 µM", "readout_units": "%", "relation_operator": "=", "observed": 12.4}
{"structure_notation": "CCOC(=O)c1sc(NC(=O)Nc2ccccc2)nc1C", "metric_name": "inhibition of growth at 10 µM", "readout_units": "%", "relation_operator": "=", "observed": 23.7}
{"structure_notation": "Cc1nc(N)sc1C(=O)NCCO", "metric_name": "inhibition of growth at 10 µM", "readout_units": "%", "relation_operator": "<", "observed": 10}
{"structure_notation": "Cc1nc(NC(=O)Nc2ccccc2)sc1C(=O)NN", "metric_name": "inhibition of growth at 10 µM", "readout_units": "%", "relation_operator": "<", "observed": 10}
